molecular target: human recombinant FAAH (Homo sapiens (Human)); assay: In vitro inhibition of human recombinant FAAH activity (Cayman FAAH inhibitor screening kit, AMC arachidonoyl amide hydrolysis)
Sequence (O00519 whole entry): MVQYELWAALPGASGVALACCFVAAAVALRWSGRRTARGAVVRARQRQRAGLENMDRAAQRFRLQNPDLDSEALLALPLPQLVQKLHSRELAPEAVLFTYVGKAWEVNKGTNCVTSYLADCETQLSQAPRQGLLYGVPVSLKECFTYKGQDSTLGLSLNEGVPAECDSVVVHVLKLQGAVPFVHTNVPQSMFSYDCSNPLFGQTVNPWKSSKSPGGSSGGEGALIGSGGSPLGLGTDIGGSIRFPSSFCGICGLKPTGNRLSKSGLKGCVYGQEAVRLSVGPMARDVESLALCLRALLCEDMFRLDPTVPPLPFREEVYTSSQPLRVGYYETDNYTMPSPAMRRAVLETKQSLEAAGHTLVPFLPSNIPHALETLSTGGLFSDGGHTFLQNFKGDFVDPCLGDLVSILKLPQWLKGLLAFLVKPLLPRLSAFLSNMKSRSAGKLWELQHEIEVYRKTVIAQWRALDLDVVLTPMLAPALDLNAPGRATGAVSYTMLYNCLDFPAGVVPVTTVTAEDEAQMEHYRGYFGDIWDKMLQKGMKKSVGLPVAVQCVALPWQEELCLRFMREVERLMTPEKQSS
Attribute: IC50
readout kind: IC50

{"compound": "CN(CCOC(c1ccc2c(c1)COCO2)c1ccc2c(c1)COCO2)C(=O)n1nnc2ccc(C#N)cc21", "test result": "1 to 10 µM"}
{"compound": "N#Cc1ncn(C(=O)N2CCC(C(c3ccc4c(c3)COCO4)c3ccc4c(c3)COCO4)CC2)n1", "test result": "1 to 10 µM"}
{"compound": "N#Cc1ncn(C(=O)N2C3CCC2CC(C(c2ccc4c(c2)COCO4)c2ccc4c(c2)COCO4)C3)n1 (centres unmarked)", "test result": "> 50 µM"}
{"compound": "N#Cc1ccc2nnn(C(=O)N3CCC(OC(c4ccc5c(c4)COCO5)c4ccc5c(c4)COCO5)CC3)c2c1", "test result": "> 10 µM"}
{"compound": "O=C(N1CCN(C(c2ccc3c(c2)COCO3)c2ccc3c(c2)COCO3)CC1)n1ccnc1", "test result": "> 10 µM"}
{"compound": "COc1ccc(C(c2ccc(F)cc2)N2CCN(C(=O)n3nnc4cc(C#N)ccc43)CC2)cc1 (centres unmarked)", "test result": "0.1 to 10 µM"}
{"compound": "COc1ccc(N(c2ccc3c(c2)OCO3)C2CCN(C(=O)n3nnc4ccc(C#N)cc43)CC2)cc1", "test result": "0.1 to 1 µM"}
{"compound": "O=C(C1CCN(C(c2ccc3c(c2)COCO3)c2ccc3c(c2)COCO3)CC1)n1nnc2ccccc21", "test result": "> 50 µM"}
{"compound": "N#Cc1ccc2c(c1)nnn2C(=O)N1CCN(C(c2ccc3c(c2)OC(F)(F)O3)c2ccc3c(c2)OC(F)(F)O3)CC1", "test result": "> 50 µM"}
{"compound": "O=C(N1CCN(C(c2ccc3c(c2)COCO3)c2ccc3c(c2)COCO3)CC1)n1nnc2ccc(Br)cc21", "test result": "> 50 µM"}
{"compound": "O=C(N1CCN(C(c2ccc3c(c2)COCO3)c2ccc3c(c2)COCO3)CC1)n1cc(-c2ccccc2)nn1", "test result": "> 10 µM"}
{"compound": "Cn1ncc2cc(C(c3ccc4c(cnn4C)c3)N3CCN(C(=O)n4nnc5ccccc54)CC3)ccc21", "test result": "~50 µM"}
{"compound": "N#Cc1ccc2nnn(C(=O)N3CCN(C(c4ccc5c(c4)OC(F)(F)O5)c4ccc5c(c4)OC(F)(F)O5)CC3)c2c1", "test result": "> 50 µM"}
{"compound": "O=C(N1CCN(C(c2ccc3c(c2)COCO3)c2ccc3c(c2)COCO3)CC1)n1nnc2ccc(F)cc21", "test result": "~50 µM"}
